assay: Cytotoxicity against rat L6 cells; type: cell-based; settings: read-out: MIC
The following compounds are listed with their measured MCC values.
Record the result as number plus unit.

>>> print(df.to_string())
                                   compound   observed
0  COc1cc(OC)c(-c2c(C)cc3cccc(OC)c3c2O)c2c1C(C)=N[C@@H](C)C2 [ANCISTROTANZANINE A]  6.4 µg/mL
1  COc1cc(OC)c2c(c1-c1ccc(OC)c3c(OC)cc(C)cc13)C[C@H](C)N[C@H]2C [ANCISTROTECTORILINE A]  6.5 µg/mL

Consider the additional compound presented here.
Dear colleague, I am looking for the recorded MCC of the following compound: COc1cc(OC)c(-c2ccc(OC)c3c(OC)cc(C)cc23)c2c1C(C)=N[C@@H](C)C2 [ANCISTROEALAINE A] 8.1 µg/mL
